Target: Caspase-8 (Homo sapiens) (UniProt Q14790)
Sequence (Q14790 217-374 limits assumed): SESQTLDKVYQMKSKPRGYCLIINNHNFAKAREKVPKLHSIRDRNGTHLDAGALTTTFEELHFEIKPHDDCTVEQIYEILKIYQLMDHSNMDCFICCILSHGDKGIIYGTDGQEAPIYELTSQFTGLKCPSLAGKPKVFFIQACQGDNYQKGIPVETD
Sequence (Q14790 385-479 limits assumed): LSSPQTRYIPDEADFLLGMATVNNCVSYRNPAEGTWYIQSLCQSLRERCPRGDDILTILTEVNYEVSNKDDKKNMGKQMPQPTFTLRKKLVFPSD
Test: Second-order inhibition rate of caspase-8 was determined by progress curve method
metric: k2 (M⁻¹ s⁻¹)

compound: CC(C)[C@H](NC(=O)CCc1ccccc1)C(=O)N[C@@H](C)C(=O)NN(CC(=O)O)C(=O)[C@@H]1O[C@H]1C(=O)OCc1ccccc1
numeric value: 185

1 = CC(C)[C@H](NC(=O)C(CCC(=O)O)NC(=O)[C@H](CC(=O)O)NC(=O)OCc1ccccc1)C(=O)NN(CC(=O)O)C(=O)[C@H]1O[C@@H]1C(=O)OCc1ccccc1 (stereo not given in full)
2 = CC(C)C[C@H](NC(=O)OCc1ccccc1)C(=O)NC(CCC(=O)O)C(=O)N[C@H](C(=O)NN(CC(=O)O)C(=O)[C@H]1O[C@@H]1C(=O)NCCc1ccccc1)[C@@H](C)O (stereo not given in full)
3 = CCNC(=O)[C@H]1O[C@@H]1C(=O)N(CC(=O)O)NC(=O)[C@H](C)NC(=O)[C@@H](NC(=O)CCc1ccccc1)C(C)C
Rank ascending by k2. Please respond by ranking the labels in the order requested. 3, 2, 1
(3: 6050 M⁻¹ s⁻¹, 2: 53300 M⁻¹ s⁻¹, 1: 188000 M⁻¹ s⁻¹)

a = CC(C)[C@H](NC(=O)C(CCC(=O)O)NC(=O)[C@H](CC(=O)O)NC(=O)OCc1ccccc1)C(=O)NN(CC(=O)O)C(=O)[C@H]1O[C@@H]1C(=O)NCc1ccccc1 (stereo not given in full)
b = CC(C)[C@H](NC(=O)CCc1ccccc1)C(=O)N[C@@H](C)C(=O)NN(CC(=O)O)C(=O)[C@H]1O[C@@H]1C(=O)OCCc1ccccc1
Please tell me which of the two, a or b , has the higher reported k2 value. Mark your selection by writing its label. a
(a: 84400 M⁻¹ s⁻¹, b: 3780 M⁻¹ s⁻¹)

1 = CC[C@H](C)[C@H](NC(=O)OCc1ccccc1)C(=O)N[C@@H](CCC(=O)O)C(=O)N[C@H](C(=O)NN(CC(=O)O)C(=O)[C@H]1O[C@@H]1C(=O)OCc1ccccc1)[C@@H](C)O
2 = CC(C)[C@H](NC(=O)CCc1ccccc1)C(=O)N[C@@H](C)C(=O)NN(CC(=O)O)C(=O)[C@H]1O[C@@H]1C(=O)OCc1ccccc1 (stereo in doubt; 23d(S,S))
Given 1 and given 2 , which shows the smaller recorded k2? Mark your selection by writing its label. 2

a = CC(C)[C@H](NC(=O)CCc1ccccc1)C(=O)N[C@@H](C)C(=O)NN(CC(=O)O)C(=O)[C@H]1O[C@@H]1C(=O)N[C@@H](C)C(=O)NCc1ccccc1
b = CCOC(=O)[C@@H]1O[C@H]1C(=O)N(CC(=O)O)NC(=O)[C@@H](NC(=O)C(CCC(=O)O)NC(=O)[C@H](CC(C)C)NC(=O)OCc1ccccc1)[C@@H](C)O (stereo not given in full)
Please tell me which of the two, a or b , has the higher reported k2 value. Mark your selection by writing its label. b

====

Biological target: Caspase-6 (Homo sapiens) (UniProt P55212)
Sequence (P55212 24-179 limits assumed): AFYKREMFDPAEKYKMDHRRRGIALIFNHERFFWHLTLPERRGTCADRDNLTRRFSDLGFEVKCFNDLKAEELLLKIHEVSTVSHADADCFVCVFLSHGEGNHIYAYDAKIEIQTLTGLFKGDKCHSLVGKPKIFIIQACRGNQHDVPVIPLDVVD
Sequence (P55212 194-293 limits assumed): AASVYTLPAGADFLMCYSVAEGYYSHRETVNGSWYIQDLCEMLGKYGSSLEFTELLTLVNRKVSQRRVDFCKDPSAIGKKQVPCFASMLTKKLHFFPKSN
Test: Second-order inhibition rate of caspase-6 was determined by progress curve method
metric: k2 (M⁻¹ s⁻¹)

The following molecules have reported results that may help.
line notation: CCOC(=O)[C@@H]1O[C@H]1C(=O)N(CC(=O)O)NC(=O)[C@@H](NC(=O)[C@H](CCC(=O)O)NC(=O)[C@@H](NC(=O)OCc1ccccc1)[C@@H](C)CC)[C@@H](C)O
subject of test: Caspase-6 (Homo sapiens) (UniProt P55212)
k2 [M⁻¹ s⁻¹]: 34000
--
line notation: CC(C)[C@H](NC(=O)CCc1ccccc1)C(=O)N[C@@H](C)C(=O)NN(CC(=O)O)C(=O)[C@H]1O[C@@H]1C(=O)N[C@@H](Cc1ccccc1)C(N)=O
subject of test: Caspase-6 (Homo sapiens) (UniProt P55212)
k2 [M⁻¹ s⁻¹]: 65
--
line notation: CC[C@H](C)[C@H](NC(=O)OCc1ccccc1)C(=O)N[C@@H](CCC(=O)O)C(=O)N[C@H](C(=O)NN(CC(=O)O)C(=O)[C@@H]1O[C@H]1C(=O)NCc1ccccc1)[C@@H](C)O
subject of test: Caspase-6 (Homo sapiens) (UniProt P55212)
k2 [M⁻¹ s⁻¹]: 60100

a = CC(C)[C@H](NC(=O)CCc1ccccc1)C(=O)N[C@@H](C)C(=O)NN(CC(=O)O)C(=O)[C@@H]1O[C@H]1C(=O)OCc1ccccc1
b = CCOC(=O)[C@H]1O[C@@H]1C(=O)N(CC(=O)O)NC(=O)[C@@H](NC(=O)OCc1ccccc1)C(C)C
Please tell me which of the two, a or b , has the higher reported k2 value. Mark your selection by writing its label. b
